tested on: CbCln3 Δex7/8/Δex7/8 GFP-LC3 cerebellar neuronal cells; assay: fraction of GFP-LC3-positive cells (≥5 vesicles/cell); higher = more autophagosome accumulation
Counter-ions that a name gives are not always drawn. The full ranking holds about 1,700 compounds; the median of “fraction of GFP-LC3-positive cells (≥5 vesicles/cell)” is about 0.43, and the highest 2% start at about 0.81. For the sample, the highest values were picked, then their nearest neighbours and some compounds at random.
Each item that follows carries a reported fraction of GFP-LC3-positive cells.
Answer with a number only.

Would you please look over these solved cases?
[[record]]
compound = "CN1CCC2=C[C@H](O)[C@H]3OC(=O)c4cc5c(cc4[C@H]3[C@@H]21)OCO5 [Hippeastrine hydrobromide]"
measure_name = "fraction of GFP-LC3-positive cells"
endpoint_result = 0.407

[[record]]
compound = "COc1cc2c(cc1O)C[C@H]1c3c(cc(O)c(OC)c3-2)CCN1C"
measure_name = "fraction of GFP-LC3-positive cells"
endpoint_result = 0.447

[[record]]
compound = "N#CC(C#N)=Cc1ccc(O)c(O)c1"
measure_name = "fraction of GFP-LC3-positive cells"
endpoint_result = 0.348


For c1cncc([C@H]2CCCCN2)c1 , write its fraction of GFP-LC3-positive cells.
0.34

For COC1=C[C@@H]2C3=C([C@@H]2C1=O)[C@@H](NC(C)=O)CCc1cc(OC)c(OC)c(OC)c13 , write its fraction of GFP-LC3-positive cells.
0.401

For C[C@@H]1CC[C@@]2(NC1)O[C@H]1C[C@H]3[C@@H]4CC=C5C[C@@H](O)CC[C@]5(C)[C@H]4CC[C@]3(C)[C@H]1[C@@H]2C , write its fraction of GFP-LC3-positive cells.
0.378

For C[N+](C)(C)CCCCCCCCCC[N+](C)(C)C.[Br-].[Br-] [Decamethonium bromide] , write its fraction of GFP-LC3-positive cells.
0.418

For COc1cc2c(c(OC)c1OC)-c1ccc(OC)c(=O)cc1[C@@H](NC(C)=O)CC2 , write its fraction of GFP-LC3-positive cells.
0.906

For CN1C(CC(O)c2ccccc2)CCCC1CC(O)c1ccccc1.Cl (stereo not drawn) [Lobelanidine hydrochloride] , write its fraction of GFP-LC3-positive cells.
0.433

* * *

system: CbCln3 Δex7/8/Δex7/8 GFP-LC3 cerebellar neuronal cells; experiment: fraction of GFP-LC3-positive cells (≥5 vesicles/cell); higher = more autophagosome accumulation
Whole data set: some 1,700 compounds, median “fraction of GFP-LC3-positive cells (≥5 vesicles/cell)” near 0.43, cut for the highest 2% near 0.81. The full list was thinned out, with the highest values kept by preference.
Binning rule for recorded fraction of GFP-LC3-positive cells: Low = under 0.4, Medium = from 0.4 up to 0.5, High = 0.5 and over

Class? Entry: Cc1nccc2c1[nH]c1cc(O)ccc12.Cl.O [Harmol hydrochloride monohydrate]
Medium

* * *

system: CbCln3 Δex7/8/Δex7/8 GFP-LC3 cerebellar neuronal cells; experiment: fraction of GFP-LC3-positive cells (≥5 vesicles/cell); higher = more autophagosome accumulation
Over roughly 1,700 compounds, “fraction of GFP-LC3-positive cells (≥5 vesicles/cell)” has its median near 0.43; the highest 2% begin near 0.81. This is one part of a sample in which the highest values are shown more often than they occur.
Measure name: fraction of GFP-LC3-positive cells
Answer with a number only.

[[record]]
compound = "C=C(C)[C@H]1O[C@H]2CC[C@@]3(C)[C@@](O)(CC[C@H]4[C@@H]5OC(C)(C)[C@H]6C[C@@H]7C(=C)Cc8c(Cl)cc9[nH]c(c5c9c8[C@@]76O)[C@@]43C)[C@]23O[C@@H]3[C@H]1O"
endpoint_result = 0.866

[[record]]
compound = "CCCCC/C=C\\C/C=C\\C/C=C\\C/C=C\\CCCC(=O)NCc1ccc(O)c(OC)c1 [Arvanil]"
endpoint_result = 0.848


Moving on to another compound below.
For CCCCC/C=C\C/C=C\C/C=C\C/C=C\CCCC(=O)NCCc1ccc(O)c(O)c1 [Arachidonoyl dopamine] , write its fraction of GFP-LC3-positive cells.
0.658
